Listing: % inhibition of SMAD7 mRNA expression of selected substances
System: human SMAD7 mRNA
Assay: Dose-dependent inhibition of human SMAD7 mRNA expression in A431 cells, oligonucleotide added without transfection (Example 5, Study 1)
Assay type: cell-based
Settings: 0.08 μM, approximately 48 hours
I only need the number, in %, no unit after it.

• 830025 (antisense TTTGTAAATCGAAAGC; 3-10-3 cEt gapmer, further chemistry not given here) [compound 830025] = 16
• 736697 (antisense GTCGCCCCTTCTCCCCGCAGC; chemistry not fully specified) [compound 736697] = 14

**Query** For the substance shown here, 798781 (CGTAAGATTCACAGCA; 3-10-3 cEt gapmer, further chemistry not given here) [compound 798781] , give the reported % inhibition of SMAD7 mRNA expression.
**Result** 23

**Query** What % inhibition of SMAD7 mRNA expression value was documented for this substance, 830121 (AGAATCAAGCCCTGGC; 3-10-3 cEt gapmer, further chemistry not given here) [compound 830121] ?
**Result** 11

**Query** # lookup: % inhibition of SMAD7 mRNA expression of 790615 (CCAATGAGAATGCTTC; 3-10-3 cEt gapmer, further chemistry not given here) [compound 790615]
**Result** 14

**Query** Request the reported % inhibition of SMAD7 mRNA expression associated with 830037 (antisense CTATTGGCTGATCTGG; 3-10-3 cEt gapmer, further chemistry not given here) [compound 830037]
**Result** 10

###

System: mouse Smad7 mRNA
Assay: Murine Smad7 mRNA expression after oral administration in BALB/c mice (Example 11)
Format: in vivo
Settings: 500 mg/kg/day oral for 3 weeks, 24 hours after last dose, duodenum
k = constrained ethyl (cEt); d = 2'-deoxy (DNA)
Mouse Smad7 mRNA expression (% inhibition), Duodenum for assorted substances
Give just the number in % inhibition; leave the unit off.

Example entries begin here.
* 830025 (antisense TTTGTAAATCGAAAGC; 3-10-3 cEt gapmer, further chemistry not given here) [compound 830025] | 51
* 772797 (AATGAACTGTATCTCC; sugars from the 5' end k3 d10 k3, all phosphorothioate, methylation of C not given here) [compound 772797] | 36

**Query** Which Mouse Smad7 mRNA expression (% inhibition), Duodenum reading was recorded for the substance 798781 (CGTAAGATTCACAGCA; 3-10-3 cEt gapmer, further chemistry not given here) [compound 798781] ?
**Result** 47

**Query** What value of measured Mouse Smad7 mRNA expression (% inhibition), Duodenum is listed for 790615 (CCAATGAGAATGCTTC; 3-10-3 cEt gapmer, further chemistry not given here) [compound 790615] ?
**Result** 54

###

System: human SMAD7 mRNA
Assay: Antisense inhibition of human SMAD7 mRNA expression in Hep3B cells by 5-10-5 MOE gapmers, single concentration, electroporation, RT-PCR (Example 1, Study 1 and 2)
Type: cell-based
Conditions: electroporation, 15,000 nM antisense oligonucleotide (Study 2), 5-10-5 MOE gapmers targeting SEQ ID NO: 1 and 2
Strand notation (5' to 3'): a small letter for the sugar, then the base; units joined by * are phosphorothioate-linked, units joined directly phosphodiester-linked; [ ] holds rarer units or linkages, { } end groups; capitals alone tell only the bases. e = 2'-O-(2-methoxyethyl) (MOE); [5mC] = 5-methylcytosine; d = 2'-deoxy (DNA)
Threshold check on % inhibition of SMAD7 mRNA expression: at or above 20% gives satisfied, strictly below gives not satisfied.

• 771389 (antisense e[5mC]*eA*e[5mC]*e[5mC]*e[5mC]*d[5mC]*dG*d[5mC]*dG*d[5mC]*dG*dG*d[5mC]*d[5mC]*d[5mC]*eG*e[5mC]*eG*e[5mC]*e[5mC]) [compound 771389] = not satisfied
• 771593 (antisense e[5mC]*eG*e[5mC]*eT*eG*d[5mC]*dT*d[5mC]*dA*dG*dA*dA*dG*d[5mC]*d[5mC]*eT*eG*eT*eG*eG) [compound 771593] = satisfied
• 771348 (antisense eG*eG*e[5mC]*e[5mC]*eA*d[5mC]*dG*dA*d[5mC]*dA*dG*dT*dA*dT*d[5mC]*eT*eG*eG*eG*e[5mC]) [compound 771348] = satisfied
• 771592 (antisense e[5mC]*eT*eG*e[5mC]*eT*d[5mC]*dA*dG*dA*dA*dG*d[5mC]*d[5mC]*dT*dG*eT*eG*eG*eA*e[5mC]) [compound 771592] = not satisfied

Shifting focus to the substance that follows.
**Query** Determine whether this substance has % inhibition of SMAD7 mRNA expression no lower than 20%: 771937 (antisense eT*e[5mC]*e[5mC]*eA*eG*dT*dG*d[5mC]*dT*dT*dG*dT*dG*d[5mC]*dA*eT*eG*eT*eG*e[5mC]) [compound 771937]
**Result** satisfied
